Parameter: max response. Scope: all listed entries.
- Target Under Test: Nuclear receptor subfamily 1 group I member 2 (Rattus norvegicus) (UniProt Q9R1A7)
- Sequence (Q9R1A7 whole entry, looked up): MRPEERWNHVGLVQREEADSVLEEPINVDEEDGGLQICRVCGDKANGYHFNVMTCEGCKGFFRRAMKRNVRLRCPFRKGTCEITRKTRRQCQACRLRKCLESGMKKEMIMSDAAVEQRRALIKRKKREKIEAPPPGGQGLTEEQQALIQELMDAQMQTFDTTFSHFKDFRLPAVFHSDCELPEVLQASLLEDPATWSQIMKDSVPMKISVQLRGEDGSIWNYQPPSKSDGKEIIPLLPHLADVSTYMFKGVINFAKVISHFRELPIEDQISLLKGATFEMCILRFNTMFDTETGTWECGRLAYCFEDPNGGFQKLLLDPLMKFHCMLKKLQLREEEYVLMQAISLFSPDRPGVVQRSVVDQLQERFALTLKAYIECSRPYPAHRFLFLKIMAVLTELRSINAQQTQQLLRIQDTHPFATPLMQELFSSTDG
- Assay Overview: qHTS assay for small molecule activators of the rat pregnane X receptor (rPXR) signaling pathway (AID 651751); also: 0% is about no effect
- Test Parameters: rPXR reporter cells, luciferase (One-Glo), 24 h
Activity calls are given as the source filed them. No rule for the calls is given here.

The examples below pair each entry with its known result.
CN(C)CCC(c1ccc(Cl)cc1)c1ccccn1 (stereo not drawn)
3.17% (inactive)
C=CCCCCCCCCC(=O)O
0.475% (inactive)
O=C(O)c1ccccc1Nc1cccc(C(F)(F)F)c1
1.7% (inactive)
O=C(Nc1ccccc1)c1cc([N+](=O)[O-])ccc1Cl
-1.59% (inactive)
O=C(OCc1ccccc1)c1ccccc1
-3.55% (inactive)

Fetch value of max response on Nuclear receptor subfamily 1 group I member 2 (Rattus norvegicus) (UniProt Q9R1A7) for O=C1CN(/N=C/c2ccc([N+](=O)[O-])o2)C(=O)N1 .
-1.4% (inactive)

Look up and report max response, with Nuclear receptor subfamily 1 group I member 2 (Rattus norvegicus) (UniProt Q9R1A7) as system, for Nc1nc2ccc([N+](=O)[O-])cc2s1
-3.29% (inactive)

Enter max response (test system Nuclear receptor subfamily 1 group I member 2 (Rattus norvegicus) (UniProt Q9R1A7)) for NCCO
-4.55% (inactive)
